system.under.test: acetylpolyamine amidohydrolase (the present enzyme, product purified to homogeneity) (Mycoplana ramosa, UniProt Q48935)
Construct: novel acetylpolyamine amidohydrolase of the present invention accumulated within the grown cells; made in house; host or cells: Mycoplana (natural producer)
Sequence (Q48935 whole entry): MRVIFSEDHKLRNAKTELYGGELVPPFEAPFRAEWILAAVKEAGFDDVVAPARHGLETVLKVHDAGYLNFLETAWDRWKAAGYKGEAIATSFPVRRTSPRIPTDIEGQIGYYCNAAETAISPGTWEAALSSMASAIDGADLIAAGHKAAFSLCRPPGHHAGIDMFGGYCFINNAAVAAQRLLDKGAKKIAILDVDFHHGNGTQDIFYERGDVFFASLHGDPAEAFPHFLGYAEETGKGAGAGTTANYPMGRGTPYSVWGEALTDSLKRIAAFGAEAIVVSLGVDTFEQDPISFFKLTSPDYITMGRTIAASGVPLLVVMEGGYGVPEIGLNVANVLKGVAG
measurement.description: Effects of various compounds upon enzyme activity, product purified to homogeneity (Method 1)
Format: biochemical, Mycoplana bullata
settings: compound 1.0 mM; 50 mM Tris-HCl pH 7.0, 37° C., 10 minutes; residual activity
// values below are reported Relative Activity (%) at 1.0 mM
Reply numerically in %, unit not repeated.

O=C(O)c1cc[c]([Hg][Cl])cc1 :: 90
[N-]=[N+]=[N-].[Na+] :: 95
[Cl][Ni][Cl] :: 90
O=[N+]([O-])[O-].[Ag+] :: 41
[Cl-].[Cl-].[Co+2] :: 105
[Cl-].[Cl-].[Zn+2] :: 22
[Cl-].[Cl-].[Mg+2] :: 85

Could you now consider this next compound?
[Q] Annotate the compound O=S(=O)(F)Cc1ccccc1 [Phenylmethanesulfonyl fluoride] with its measured Relative Activity (%) at 1.0 mM.
[A] 90
